Source listed as ChEMBL document CHEMBL1201862.

- Test system: NCI-H460
- EXPERIMENT: NCI tumour cell line growth inhibition, 48 h
Active and inactive are the calls of the source. Cut-off read from the data, not from the text of the source: active = GI50 up to about 1.1 µM and inactive = higher. Peptide text beside a SMILES is read from it. * marks the point of attachment. OSu = O=C1CCC(=O)N1O*
For each entry below, report its GI50 value.

// query GI50 value for entry O=C1/C(=C\c2cccc(Oc3ccccc3)c2)S(=O)(=O)C(c2ccccc2)N1c1ccccc1Cl (stereo not drawn)
32.6 µM (inactive)

// query GI50 value for entry `COC(=O)c1ccc(CCC2=CC(=O)C=CC2=O)cc1`
19 µM (inactive)

// query GI50 value for entry `C=C1C(=O)O[C@@H]2[C@H]1CCC(C)=C1C=CC(=O)[C@]12C`
19.4 µM (inactive)

// query GI50 value for entry O=C(Nc1ccc(Cl)cc1Cl)C(=O)C(C(=O)c1ccc2ccccc2c1)C1OC(=O)c2ccccc21 (stereo not drawn)
4.33 µM (inactive)

// query GI50 value for entry `O=[N+]([O-])C(=C(N1CCCCC1)N1CCCCC1)/C(Cl)=C(\Cl)[N+](=O)[O-]`
22.5 µM (inactive)

// query GI50 value for entry Cc1cc(Cc2cc(C)c(NC(=O)C(=O)C3CCC4=C(SC5C=CC=CC5N4)C3=O)c(C(C)C)c2)cc(C(C)C)c1NC(=O)C(=O)C1CCC2=C(SC3C=CC=CC3N2)C1=O (stereo not drawn)
53.1 µM (inactive)

// query GI50 value for entry `CN1CCC(=O)/C(=C/c2ccccc2)C1`
16.3 µM (inactive)

// query GI50 value for entry `O=C(/C=C/c1ccccc1O)c1cccc2ccccc12`
> 84.1 µM (inactive)

// query GI50 value for entry `Clc1ccccc1CN1COc2c(ccc3cccnc23)C1`
5.19 µM (inactive)

// query GI50 value for entry CCCCCCCCCCCCCCCCCCOCC(O)COP(=O)(O)OCC1OC(n2ccc(N)nc2=O)C(O)C1O (stereo not drawn)
3.69 µM (inactive)

// query GI50 value for entry O=C(Nc1cccc(NC(=O)C(=O)C2CCC3=C(Sc4ccccc4N3)C2=O)n1)C(=O)C1CCC2=C(Sc3ccccc3N2)C1=O (stereo not drawn)
65.9 µM (inactive)

// query GI50 value for entry `CC1=C(C(=O)Nc2ccccc2C)C(c2ccc(C3C(C(=O)Nc4ccccc4C)=CNC=C3C(=O)Nc3ccccc3C)cc2)C(C(=O)Nc2ccccc2C)=C(C)N1`
21.4 µM (inactive)

// query GI50 value for entry `COc1cccc(/C=C2\S/C(=N/Nc3nc(-c4ccc([N+](=O)[O-])cc4)cs3)NC2=O)c1O`
12.6 µM (inactive)

// query GI50 value for entry `C(=C\c1cccs1)/c1cccc(/C=C/c2cccs2)n1`
36.4 µM (inactive)

// query GI50 value for entry NCCCCC(NC(=O)C(N)Cc1ccc(O)cc1)C(=O)NC(Cc1ccc(O)cc1)C(=O)NC(CCCCN)C(=O)ON1C(=O)CCC1=O (stereo not drawn) (H-YKYK-OSu; configuration not given here)
> 100 µM (inactive)

// query GI50 value for entry CN(C)P(=O)(Oc1occc1C(O)Cc1ccccc1)N(C)C (stereo not drawn)
> 100 µM (inactive)

// query GI50 value for entry `Nc1cccc(/C=C/C(=O)N2CCN(CCOC(c3ccccc3)c3ccccc3)CC2)c1`
16.9 µM (inactive)

// query GI50 value for entry `Nc1nc(Cl)c(N)c(NCC2(CO)CC2)n1`
> 100 µM (inactive)
